Data credit: PubChem BioAssay (NCI)

- assay.overview: NCI Yeast Anticancer Drug Screen. Data for the sgs1 mgt1 strain (AID 161);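 also: 0% = growth of cultures given vehicle only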
- particulars: S. cerevisiae sgs1 mgt1 strain, at 50.0 µM, hits give high values
Compounds without any hit were thinned out: in the full panel of roughly 79,000, 15% have a hit.
assay.endpoint: growth inhibition (%)
The figure you give is taken to be in %; do not add the unit.

Below are worked cases with known answers.
compound=CC(C)C(=O)NCc1ccccc1Sc1ccccc1CNC(=O)C(C)C assay_endpoint="growth inhibition" reading=-18.5
compound=c1ccc(N=C(N2CCCC2)N(CCN2CCCC2)c2ccccc2)cc1 assay_endpoint="growth inhibition" reading=-36.4
compound=O=C(O)Cc1cc(Cl)ccc1Cl assay_endpoint="growth inhibition" reading=8.7

Please report the recorded growth inhibition for COC(=O)/C=C(\C)CC(O)/C=C(\C)CCC=C(C)C (centres undefined) .
75.1

Fill in: growth inhibition of CC1(C)OC2COC3(CO)OC(C)(C)OC3C2O1 (centres undefined) is ___
15.4

For the compound CCOC(=O)/C(C#N)=C/Nc1[nH]c(=O)c(C#N)c(-c2ccc(Cl)cc2)c1SC , what growth inhibition is on record?
-9.35
